Give measured binding response for each item. Keep answers brief.
target: T1, human serum albumin (human, UniProt P02768 25-609); assay: SPR (Biacore) binding response to HSA at pH 7.4, Affimer at 50 nM; note: unit not given here
T1 construct: mature; Bought protein; biotinylated in the Octet and HTRF assays; also called HSA; HuSA
Number, no unit, nothing else.

query: Reported binding response for HSA-41 R90A (designed binder) MIPRGLSEAKPATPEIQEIVDKVKPQLEEKTNETYGKLEAVQYKTQVLANFFQRRWPGSTNYYIKVRAGDNKYMHLKVFNGPWKFRNTDAGADRVLTGYQVDKNKDDELTGFHHHHHH : what is it?
result: 17.2

query: Reported binding response for HSA-41 D89A (designed binder) MIPRGLSEAKPATPEIQEIVDKVKPQLEEKTNETYGKLEAVQYKTQVLANFFQRRWPGSTNYYIKVRAGDNKYMHLKVFNGPWKFRNTARGADRVLTGYQVDKNKDDELTGFHHHHHH : what is it?
result: 26.1

query: Reported binding response for HSA-41 R86A (designed binder) MIPRGLSEAKPATPEIQEIVDKVKPQLEEKTNETYGKLEAVQYKTQVLANFFQRRWPGSTNYYIKVRAGDNKYMHLKVFNGPWKFANTDRGADRVLTGYQVDKNKDDELTGFHHHHHH : what is it?
result: 19.1

query: Reported binding response for HSA-41 N50A (designed binder) MIPRGLSEAKPATPEIQEIVDKVKPQLEEKTNETYGKLEAVQYKTQVLAAFFQRRWPGSTNYYIKVRAGDNKYMHLKVFNGPWKFRNTDRGADRVLTGYQVDKNKDDELTGFHHHHHH : what is it?
result: 13
